These measurements were taken from the supplement of paper PMC11061612.

Tested on: Jurkat (T-Lymphoblastic Leukemia)
Test: combination Emax (second highest fraction inhibited in the dose matrix, 72 h); higher = more inhibition; extreme values may be limits of the assay
So basically: combination Emax at 0.9 or higher? That is 1. Lower than 0.9? That is -1.

NC1(C(=O)N[C@@H](CCO)c2ccc(Cl)cc2)CCN(c2ncnc3[nH]ccc23)CC1 [Capivasertib] + CC(C)n1c(=O)n(C)c2cnc3cc(F)c(-c4ccc(OCCCN5CCCCC5)nc4)cc3c21 [AZD1390] (first compound max 10 µM, 7x7, partner max 0.3 µM) : -1
NC1(C(=O)N[C@@H](CCO)c2ccc(Cl)cc2)CCN(c2ncnc3[nH]ccc23)CC1 [Capivasertib] + C[C@@H]1COCCN1C2=NC(=NC(=C2)C3(CC3)[S@](=N)(=O)C)C4=C5C=CNC5=NC=C4 [AZD6738] (first compound max 10 µM, 7x7, partner max 10 µM) : 1
COc1nnc2ccc(N3CCC(c4ccc(OCCN5CCN(C)C(=O)[C@H]5C)cc4)CC3)nn12 [AZD5153] + Cc1c2c(nn1C)CSCc1cc(n(C)n1)CSc1cc(c3ccccc3c1)OCCCc1c(C(=O)O)n(C)c3c-2c(Cl)ccc13 [AZD5991] (first compound max 1 µM, 7x7, partner max 1 µM) : 1
CN(CCO)CC[C@H](CSc1ccccc1)Nc1ccc(S(=O)(=O)NC(=O)c2ccc(N3CCC([C@@H](O)c4ccccc4-c4ccc(Cl)cc4)CC3)cc2)cc1S(=O)(=O)C(F)(F)F [AZD4320] + Cc1cc2ncnn2cc1Nc1ncc2c(n1)n(C1CCOCC1)c(=O)n2C [AZD7648] (first compound max 1 µM, 7x7, partner max 10 µM) : -1

Consider the additional compound presented here.
Asked: Check if combination Emax >= 0.9 (inclusive). Item: CN(CCO)CC[C@H](CSc1ccccc1)Nc1ccc(S(=O)(=O)NC(=O)c2ccc(N3CCC([C@@H](O)c4ccccc4-c4ccc(Cl)cc4)CC3)cc2)cc1S(=O)(=O)C(F)(F)F [AZD4320] + CN(C)CCCOc1ccc(-c2ccc3ncc4c(c3c2)n(C2CCOCC2)c(=O)n4C)cn1 [AZD0156] (first compound max 1 µM, 7x7, partner max 1 µM)
Given back: -1

* * *

Tested on: CA46 (Burkitt's Lymphoma)
Test: Bliss excess, mean over the matrix (fraction); higher = more synergy
Bliss excess values by entry
Number, no unit, nothing else.

NC1(C(=O)N[C@@H](CCO)c2ccc(Cl)cc2)CCN(c2ncnc3[nH]ccc23)CC1 [Capivasertib] + CC(C)n1c(=O)n(C)c2cnc3cc(F)c(-c4ccc(OCCCN5CCCCC5)nc4)cc3c21 [AZD1390] (first compound max 10 µM, 7x7, partner max 0.3 µM) : -0.049

Asked: Kindly indicate its recorded Bliss excess. Item: CCN(CCO)CCCOc1ccc2c(Nc3cc(CC(=O)Nc4cccc(F)c4)[nH]n3)ncnc2c1 [AZD2811] + C[C@@H]1COCCN1C2=NC(=NC(=C2)C3(CC3)[S@](=N)(=O)C)C4=C5C=CNC5=NC=C4 [AZD6738] (first compound max 1 µM, 7x7, partner max 10 µM)
Given back: -0.0698

Asked: Kindly indicate its recorded Bliss excess. Item: CN(C)CCCOc1ccc(-c2ccc3ncc4c(c3c2)n(C2CCOCC2)c(=O)n4C)cn1 [AZD0156] + CCN(CCO)CCCOc1ccc2c(Nc3cc(CC(=O)Nc4cccc(F)c4)[nH]n3)ncnc2c1 [AZD2811] (first compound max 1 µM, 7x7, partner max 1 µM)
Given back: 0.0059

Asked: Kindly indicate its recorded Bliss excess. Item: NC1(C(=O)N[C@@H](CCO)c2ccc(Cl)cc2)CCN(c2ncnc3[nH]ccc23)CC1 [Capivasertib] + Cn1cnc2c(F)c(Nc3ccc(Br)cc3Cl)c(C(=O)NOCCO)cc21 [Selumetinib] (first compound max 10 µM, 7x7, partner max 10 µM)
Given back: 0.0039

Asked: Kindly indicate its recorded Bliss excess. Item: Cc1c2c(nn1C)CSCc1cc(n(C)n1)CSc1cc(c3ccccc3c1)OCCCc1c(C(=O)O)n(C)c3c-2c(Cl)ccc13 [AZD5991] + CCN(CCO)CCCOc1ccc2c(Nc3cc(CC(=O)Nc4cccc(F)c4)[nH]n3)ncnc2c1 [AZD2811] (first compound max 1 µM, 7x7, partner max 1 µM)
Given back: 0.0251

Asked: Kindly indicate its recorded Bliss excess. Item: Cc1c2c(nn1C)CSCc1cc(n(C)n1)CSc1cc(c3ccccc3c1)OCCCc1c(C(=O)O)n(C)c3c-2c(Cl)ccc13 [AZD5991] + Cn1cnc2c(F)c(Nc3ccc(Br)cc3Cl)c(C(=O)NOCCO)cc21 [Selumetinib] (first compound max 1 µM, 7x7, partner max 3 µM)
Given back: -0.0195

* * *

System: 22RV1 (Prostate Carcinoma)
Experiment: Bliss excess, mean over the matrix (fraction); higher = more synergy
Bliss excess values by entry
Number, no unit, nothing else.

Worked cases, answers included:
CN(CCO)CC[C@H](CSc1ccccc1)Nc1ccc(S(=O)(=O)NC(=O)c2ccc(N3CCC([C@@H](O)c4ccccc4-c4ccc(Cl)cc4)CC3)cc2)cc1S(=O)(=O)C(F)(F)F [AZD4320] + CCN(CCO)CCCOc1ccc2c(Nc3cc(CC(=O)Nc4cccc(F)c4)[nH]n3)ncnc2c1 [AZD2811] (first compound max 1 µM, 7x7, partner max 1 µM) : -0.0342
C=CCn1c(=O)c2cnc(Nc3ccc(N4CCN(C)CC4)cc3)nc2n1-c1cccc(C(C)(C)O)n1 [AZD1775] + C1CN(CCC1(C(=O)N[C@@H](CCO)C2=CC=C(C=C2)Cl)N)C3=NC=NC4=C3C=CN4 [Capivasertib] (first compound max 3 µM, partner max 3 µM) : -0.0348

Attention now turns to another entry.
Asked: Kindly indicate its recorded Bliss excess. Item: COc1cccc(OCCCN)c1-c1cc(Nc2cnc(C#N)cn2)n[nH]1 [Prexasertib] + C[C@@H]1COCCN1C2=NC(=NC(=C2)C3(CC3)[S@](=N)(=O)C)C4=C5C=CNC5=NC=C4 [AZD6738] (first compound max 1 µM, 7x7, partner max 10 µM)
Given back: 0.0209

* * *

Tested on: huH-1 (Hepatocellular Carcinoma)
Assay: Bliss excess, mean over the matrix (fraction); higher = more synergy
Bliss excess values by entry
Number, no unit, nothing else.

Worked cases, answers included:
C[C@@H](c1ccc2nccn2c1)n1nnc2ncc(-c3cnn(C)c3)nc21 [Savolitinib] + CN(CC[C@H](CSC1=CC=CC=C1)NC2=C(C=C(C=C2)S(=O)(=O)NC(=O)C3=CC=C(C=C3)N4CCC(CC4)[C@H](C5=CC=CC=C5C6=CC=C(C=C6)Cl)O)S(=O)(=O)C(F)(F)F)CCO [AZD4320] (first compound max 1 µM, 7x7, partner max 1 µM) : -0.0456
C[C@@H](c1ccc2nccn2c1)n1nnc2ncc(-c3cnn(C)c3)nc21 [Savolitinib] + Cc1c2c(nn1C)CSCc1cc(n(C)n1)CSc1cc(c3ccccc3c1)OCCCc1c(C(=O)O)n(C)c3c-2c(Cl)ccc13 [AZD5991] (first compound max 1 µM, 7x7, partner max 1 µM) : -0.0586

Attention now turns to another entry.
Asked: Kindly indicate its recorded Bliss excess. Item: CN(CCO)CC[C@H](CSc1ccccc1)Nc1ccc(S(=O)(=O)NC(=O)c2ccc(N3CCC([C@@H](O)c4ccccc4-c4ccc(Cl)cc4)CC3)cc2)cc1S(=O)(=O)C(F)(F)F [AZD4320] + C[C@@H]1COCCN1C2=NC(=NC(=C2)C3(CC3)[S@](=N)(=O)C)C4=C5C=CNC5=NC=C4 [AZD6738] (first compound max 1 µM, 7x7, partner max 10 µM)
Given back: 0.0215

* * *

Tested on: COLO-792 (Melanoma)
Test: combination Emax (second highest fraction inhibited in the dose matrix, 72 h); higher = more inhibition; extreme values may be limits of the assay
combination Emax values by entry
Number, no unit, nothing else.

Worked cases, answers included:
CC1(C)CCC(CN2CCN(c3ccc(C(=O)NS(=O)(=O)c4ccc(NCC5CCOCC5)c([N+](=O)[O-])c4)c(Oc4cnc5[nH]ccc5c4)c3)CC2)=C(c2ccc(Cl)cc2)C1 [Venetoclax] + C[C@@H]1COCCN1C2=NC(=NC(=C2)C3(CC3)[S@](=N)(=O)C)C4=C5C=CNC5=NC=C4 [AZD6738] (first compound max 1 µM, 7x7, partner max 10 µM) : 0.316
Cc1c2c(nn1C)CSCc1cc(n(C)n1)CSc1cc(c3ccccc3c1)OCCCc1c(C(=O)O)n(C)c3c-2c(Cl)ccc13 [AZD5991] + Cn1cnc2c(F)c(Nc3ccc(Br)cc3Cl)c(C(=O)NOCCO)cc21 [Selumetinib] (first compound max 1 µM, 7x7, partner max 3 µM) : 1
CN(CCO)CC[C@H](CSc1ccccc1)Nc1ccc(S(=O)(=O)NC(=O)c2ccc(N3CCC([C@@H](O)c4ccccc4-c4ccc(Cl)cc4)CC3)cc2)cc1S(=O)(=O)C(F)(F)F [AZD4320] + C[C@@H](Nc1cc(F)cc(F)c1)c1cc(C(=O)N(C)C)cc2c(=O)cc(N3CCOCC3)oc12 [AZD8186] (first compound max 1 µM, 7x7, partner max 3 µM) : 0.939
Cc1c2c(nn1C)CSCc1cc(n(C)n1)CSc1cc(c3ccccc3c1)OCCCc1c(C(=O)O)n(C)c3c-2c(Cl)ccc13 [AZD5991] + C[C@@H]1COCCN1C2=NC(=NC(=C2)C3(CC3)[S@](=N)(=O)C)C4=C5C=CNC5=NC=C4 [AZD6738] (first compound max 1 µM, 7x7, partner max 10 µM) : 1

Asked: Fetch value of combination Emax on COLO-792 (Melanoma) for Cn1cnc2c(F)c(Nc3ccc(Br)cc3Cl)c(C(=O)NOCCO)cc21 [Selumetinib] + CCN(CCO)CCCOc1ccc2c(Nc3cc(CC(=O)Nc4cccc(F)c4)[nH]n3)ncnc2c1 [AZD2811] (first compound max 10 µM, 7x7, partner max 1 µM) .
Given back: 0.51

Asked: Fetch value of combination Emax on COLO-792 (Melanoma) for COc1cccc(OCCCN)c1-c1cc(Nc2cnc(C#N)cn2)n[nH]1 [Prexasertib] + C[C@@H]1COCCN1C2=NC(=NC(=C2)C3(CC3)[S@](=N)(=O)C)C4=C5C=CNC5=NC=C4 [AZD6738] (first compound max 1 µM, 7x7, partner max 10 µM) .
Given back: 0.351

Asked: Fetch value of combination Emax on COLO-792 (Melanoma) for Cc1c2c(nn1C)CSCc1cc(n(C)n1)CSc1cc(c3ccccc3c1)OCCCc1c(C(=O)O)n(C)c3c-2c(Cl)ccc13 [AZD5991] + CN(C)CCCOc1ccc(-c2ccc3ncc4c(c3c2)n(C2CCOCC2)c(=O)n4C)cn1 [AZD0156] (first compound max 1 µM, 7x7, partner max 1 µM) .
Given back: 1
